Entry source: ChEMBL document CHEMBL1201862

Recorded GI50 by entry
test system: RXF 631; assay: NCI tumour cell line growth inhibition, 48 h
Active and inactive are the calls of the source. Rule as the data show it: active = GI50 up to about 1.1 µM and inactive = higher.

Compound: COc1ccc(C(=O)C(c2ccc(OC)cc2)C2(O)C(=O)Nc3c(C)cc(Cl)cc32)cc1 (configuration not stated)
GI50: 59 µM (inactive)
//
Compound: C[N+](C)(C)C1CC([N+](C)(C)C)C2c3ccccc3C21 (configuration not stated)
GI50: > 100 µM (inactive)
//
Compound: CC1(OCc2ccccc2)C(=O)N2C1NCC2(C)C (configuration not stated)
GI50: > 100 µM (inactive)
//
Compound: Cc1cc(N(CCC#N)CCC#N)ccc1/C=C\C(=O)Nc1ccccc1
GI50: > 100 µM (inactive)
//
Compound: NCCCNCCCCN(CCCN)/[N+]([O-])=N\O
GI50: > 100 µM (inactive)
//
Compound: CCCCCCCCCCCCCCCC(=O)NC1CCc2cc(O)c(O)c(O)c2-c2ccc(SC)c(=O)cc21 (configuration not stated)
GI50: 13.2 µM (inactive)
//
Compound: Clc1c(Cl)c2c(Cl)c(Cl)c1C[PH](c1ccccc1)(c1ccccc1)CC[PH](c1ccccc1)(c1ccccc1)Cc1c(Cl)c(Cl)c(c(Cl)c1Cl)C[PH](c1ccccc1)(c1ccccc1)CC[PH](c1ccccc1)(c1ccccc1)C2
GI50: 6.68 µM (inactive)
//
Compound: COC(=O)C(=O)C(C(=O)C(=O)Nc1ccccc1[N+](=O)[O-])c1nc2ccc([N+](=O)[O-])cc2nc1O (configuration not stated)
GI50: > 100 µM (inactive)
//
Compound: Cc1nn(-c2ccccc2)c2nc(N3CCOCC3)nnc12
GI50: 92.7 µM (inactive)
//
Compound: CC(C)O/C=C1\C(=O)C2(SCCS2)[C@H]2CCCC[C@@H]12
GI50: 52.8 µM (inactive)
//
Compound: Cc1nc2sccn2c1C(=O)NN
GI50: > 100 µM (inactive)
//
Compound: c1ccc(SC(Sc2ccccc2)=C2CCC2)cc1
GI50: > 100 µM (inactive)
//
Compound: NCCc1ccc2oc3cc(=O)c4ccccc4c-3nc2c1
GI50: 2.96 µM (inactive)
//
Compound: COc1ccc(NC(=O)CC/C(CC(=O)c2ccccc2Cl)=N\Nc2nnc(C)n2N)cc1
GI50: > 100 µM (inactive)
//
Compound: CCc1cccc(C(C)C)c1NC(=O)C(=O)CC(=O)c1c(C)[n+]([O-])c2ccccc2[n+]1[O-]
GI50: > 100 µM (inactive)
//
Compound: C/C(=N\NS(=O)(=O)c1ccccc1)c1ccc[n+]([O-])n1
GI50: > 100 µM (inactive)
//
Compound: CCOC(=O)c1c2ccc(/C=C/c3ccccc3)ccc-2c(C(=O)OCC)c1N
GI50: > 100 µM (inactive)

====

test system: HCT-15
Measured Parameter: GI50

Compound: CSc1ncnc2c1cnn2Cc1cn(COCCO)nn1
Result: > 100 µM
--
Compound: C=CCc1ccc(O)c(-c2cc(C3Oc4c(-c5cc(CC=C)ccc5O)cc(O)cc4[C@@H]3CO)ccc2O)c1 (stereo partly drawn)
Result: 15.8 µM
--
Compound: Cc1cc(C)nc(NS(=O)(=O)c2ccc(NC(=O)c3ccc4nc5ccccc5c(Nc5ccc(S(N)(=O)=O)cc5)c4c3)cc2)n1
Result: > 100 µM
--
Compound: O=C1/C(=N/O)Cc2c(Br)ccc(Br)c21
Result: 33.7 µM
--
Compound: CSc1nnc(COc2ccc(Cl)cc2)o1
Result: > 100 µM
--
Compound: Cc1c2ccncc2cc2c1[nH]c1ccccc12
Result: 4.2 µM
--
Compound: O=C(O)Cc1cccnc1
Result: > 100 µM
--
Compound: Oc1c(OCc2nnc(CCCCCCCCc3nnc(COc4ccc5ccccc5c4O)n3Nc3ccccc3)n2Nc2ccccc2)ccc2ccccc12
Result: 11.4 µM
--
Compound: c1ccc(CSC(SCc2ccccc2)c2cccc3ccccc23)cc1
Result: > 10 µM
--
Compound: COC1/C=C/C(C)C(C(C)C(OC)C(C)CCC(=O)C(C)C(C/C=C/N(C)C=O)OC)OC(=O)/C=C/C=C(\C)CC(OC)CC2=CC(=O)O[C@H](C2)C(C)C(OC)CC(OC)/C=C/C(C)C(OC)C1 (stereo partly drawn)
Result: < 0.005 µM
--
Compound: CN1CC(C(=O)C2C(=O)c3ccccc3C2=O)C(=O)C(=O)C(C(=O)C2C(=O)c3ccccc3C2=O)C1 (stereo not drawn)
Result: > 100 µM
--
Compound: COc1ccc2c(c1)CCc1c-2n(CCN2CCCCC2)c2ccc(OC)cc12
Result: > 100 µM
--
Compound: N#Cc1c(-c2ccccc2)cn(C(=O)c2ccccc2)c1N
Result: > 100 µM
--
Compound: COC(=O)C1(Cc2ccccc2C)Cc2ccc(C)cc2C1=O (stereo not drawn)
Result: 27.4 µM
--
Compound: CCCC/N=C(/c1ccccc1)N1CCOCC1
Result: > 100 µM
--
Compound: CC(=O)NC1C(OCc2ccccc2)OC(CO)C(O)C1OC(C)C(=O)NC(C(=O)NC(CCC(=O)NCCCC(=O)Nc1ccc2c(c1)CN1C(=O)c3ccccc3C1=N2)C(N)=O)C(C)C (stereo not drawn)
Result: > 100 µM
--
Compound: CCCNCC(O)CNc1ccc(NCC(O)CNCCC)c2c1C(=O)c1ccccc1C2=O (stereo not drawn)
Result: 43.9 µM
--
Compound: Nc1nc(=O)c(/N=N/c2ccccc2)c(N)[nH]1
Result: 30.5 µM
